B1: BTBD1 (parent)
chain: TSAEIELPDVEPAAFLALLRFLYS

# Variants of: B1
# assay.method.text: protein stability index of a GFP-peptide fusion (GPS, HEK-293T) (PSI 1-6); higher = more stable;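 also: lentivirally expressed fusions sorted by FACS into six bins by GFP to DsRed ratio, PSI derived from sequencing read proportions per bin multiplied by bin number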
# experimental.setup: c terminus: a fixed tail appended
I'd be grateful if you could share measured protein stability index for these entries.
In your answer, state the number alone without any accompanying words.

Which measured protein stability index value corresponds to `T1V` ?
1.88

// protein stability index lookup, key: `L18C`
1.77

Need protein stability index of `V10L` , thanks.
1.56

Quick one: protein stability index for `D9G` ?
1.92

Query: protein stability index; subject: `A17P`
1.75

Which protein stability index value belongs to `S2K` ?
2.39

Any idea what its protein stability index is? The variant is `I5V`
1.75

Which measured protein stability index value corresponds to `A17L` ?
2.04

Value lookup for protein stability index; key = `L18S`
1.78

Name the recorded protein stability index for `A3T` .
1.99

State the recorded protein stability index for this entry: `L18Q`
1.83

Quick one: protein stability index of `L7P` ?
2.3

Record request: protein stability index value, item `A3G`
2.66

What value of measured protein stability index is listed for `R20N` ?
1.71

Recorded protein stability index of `L16H` , please.
1.74

Suppose we examine the variant `D9K` ; what protein stability index value has been reported?
1.98

Recorded protein stability index of `L16D` , please.
1.88

Requested read-out: protein stability index. Entry: `A17D`
1.89

# input variant: `E11Q` ; wanted: its protein stability index
1.56

Item under review: `L16K` . Reported protein stability index?
1.47

// query protein stability index value for entry `L7Q`
1.96

Given the entry `L19F` , report its measured protein stability index.
1.58
